These measurements were taken from ChEMBL document CHEMBL1961873.

# target desc: Glycogen synthase kinase-3 beta (Homo sapiens);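 note: reported values are mean percent inhibition of GSK3B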
# assay conditions: at 1 µM
Respond with True for inhibition values of 20% and above, False for values below.

Example results:
> print(dat)
                                smiles.code    cat
1  NC(=O)c1sc(-n2cnc3cc(C(F)(F)F)ccc32)cc1OCc1ccccc1Br  False
2            Nc1nonc1-c1nc2cnccc2n1C1CCCCC1   True
3  COc1cccc(COc2cc(-n3cnc4ccccc43)sc2C(N)=O)c1  False

INPUT: Hello, I need to know if "COc1cc2c(cc1Nc1nc(Nc3ccsc3C(N)=O)c3cc[nH]c3n1)N(C(=O)CN(C)C)CCC2" has measured inhibition not below 20%. Thanks!
OUTPUT: False

INPUT: Answer whether inhibition of "CCn1c(-c2nonc2N)nc2c(C#CC(C)(C)O)ncc(OC[C@@H]3CCCN3)c21" is greater than or equal to 20%.
OUTPUT: True

INPUT: Entry "NS(=O)(=O)c1ccc(-c2ccc3c(NC(=O)C4CC4)n[nH]c3c2)cc1" : is its inhibition no less than 20%?
OUTPUT: False

INPUT: State whether the measured inhibition reaches 20%, counting equality as reaching it, for "COc1cc(C=NNc2ncnc3c2cnn3Cc2ccccc2)ccc1O"
OUTPUT: False

INPUT: Quick check: does "CCn1c(-c2nonc2N)nc2c(C#CCN)ncc(OCCCN)c21" have inhibition greater than or equal to 20%?
OUTPUT: False

---

Documented inhibition across a set of molecules
# target desc: Ribosomal protein S6 kinase alpha-5 (Homo sapiens);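 note: mean inhibition of MSK1, from screening of the GSK PKIS inhibitor set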
# assay conditions: at 1 µM
Hi! Could you send only the number? It should be in %, unit omitted.

Before answering, review these 6 worked examples.
> print(dat)
                                smiles.code  measurement.label  measured
1   COc1cc(C=NNc2ncnc3c2cnn3Cc2ccccc2)ccc1O         inhibition         3
2  CCn1c(-c2nonc2N)nc2c(C#CCN)ncc(OCCCN)c21         inhibition      51.5
3  Cc1cc(-c2ccco2)cc(C)c1/C=C/c1cncc(-c2nn[nH]n2)c1         inhibition     -1.54
4  CCn1c(-c2nonc2N)nc2c(C#CC(C)(C)O)ncc(OCC3CCNCC3)c21         inhibition      16.2
5  CCn1c(-c2nonc2N)nc2c(C#CC(C)(C)O)nc(O[C@@H](CN)c3ccccc3)cc21         inhibition      51.3
6            Nc1nonc1-c1nc2cnccc2n1C1CCCCC1         inhibition      85.2

INPUT: For the molecule "NS(=O)(=O)c1ccc(N/C=C2\C(=O)Nc3ccc4ncsc4c32)cc1" , give its reported inhibition.
OUTPUT: 12.2

INPUT: Return value of inhibition for input "CCn1c(-c2nonc2N)nc2c(C#CC(C)(C)O)ncc(OC[C@@H]3CCCN3)c21" , no commentary.
OUTPUT: 7.89

INPUT: Complete the entry with inhibition for "COc1cc2c(cc1Nc1nc(Nc3ccsc3C(N)=O)c3cc[nH]c3n1)N(C(=O)CN(C)C)CCC2"
OUTPUT: -0.04

INPUT: Provide measured inhibition value, entry: "COc1cccc(COc2cc(-n3cnc4ccccc43)sc2C(N)=O)c1"
OUTPUT: -1.08

---

# target desc: Protein kinase C gamma type (Homo sapiens);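 note: values are mean percent inhibition of PKC gamma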
# assay conditions: at 0.1 µM
measurement label: inhibition (%)
# number only, unit % dropped from output

> print(dat)
                                smiles.code  measured
1  CCn1c(-c2nonc2N)nc2c(C#CC(C)(C)O)ncc(OCC3CCNCC3)c21      6.74

INPUT: Identify measured inhibition corresponding to "COc1cccc(COc2cc(-n3cnc4ccccc43)sc2C(N)=O)c1"
OUTPUT: 1.09

INPUT: Please indicate inhibition recorded for "COc1cccc(-n2ncc3c(N/N=C/c4ccncc4)ncnc32)c1"
OUTPUT: 1.76

INPUT: Give inhibition for "COc1cc(C=NNc2ncnc3c2cnn3Cc2ccccc2)ccc1O"
OUTPUT: -2.68

INPUT: Write down inhibition measured for item "Nc1nonc1-c1nc2cnccc2n1C1CCCCC1"
OUTPUT: 8.45

INPUT: Return reported inhibition. Input molecule: "CCn1c(-c2nonc2N)nc2c(C#CC(C)(C)O)ncc(OC[C@@H]3CCCN3)c21"
OUTPUT: 9.3

---

inhibition by entry:
# target desc: Casein kinase II subunit alpha (Homo sapiens) (UniProt P68400);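 note: reported value is the mean CK2 inhibition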
# Sequence (P68400 whole entry, looked up): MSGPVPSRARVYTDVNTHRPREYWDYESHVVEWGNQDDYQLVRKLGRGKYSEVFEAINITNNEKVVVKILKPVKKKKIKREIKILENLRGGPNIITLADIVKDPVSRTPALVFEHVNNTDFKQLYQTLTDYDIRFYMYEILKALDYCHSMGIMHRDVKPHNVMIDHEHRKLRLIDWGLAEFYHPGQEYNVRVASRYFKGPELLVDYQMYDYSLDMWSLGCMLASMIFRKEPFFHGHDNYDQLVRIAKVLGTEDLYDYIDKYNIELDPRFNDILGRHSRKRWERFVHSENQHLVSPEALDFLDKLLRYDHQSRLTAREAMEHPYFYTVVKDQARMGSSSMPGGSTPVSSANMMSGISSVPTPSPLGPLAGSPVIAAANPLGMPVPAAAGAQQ
# assay conditions: at 1 µM
# output: bare number, implied unit %

> print(dat)
                                smiles.code                               target.desc  measured
1  COc1cccc(COc2cc(-n3cnc4ccccc43)sc2C(N)=O)c1  Casein kinase II subunit alpha (Homo sapiens) (UniProt P68400)     -0.53
2  NS(=O)(=O)c1ccc(-c2ccc3c(NC(=O)C4CC4)n[nH]c3c2)cc1  Casein kinase II subunit alpha (Homo sapiens) (UniProt P68400)      1.51
3  CCn1c(-c2nonc2N)nc2c(C#CCN)ncc(OCCCN)c21  Casein kinase II subunit alpha (Homo sapiens) (UniProt P68400)      10.1
4  Fc1ccc(-c2ncn(C3CCNCC3)c2-c2ccnc(Oc3ccccc3)n2)cc1  Casein kinase II subunit alpha (Homo sapiens) (UniProt P68400)      1.68
5  Cc1cc(-c2ccco2)cc(C)c1/C=C/c1cncc(-c2nn[nH]n2)c1  Casein kinase II subunit alpha (Homo sapiens) (UniProt P68400)       3.8

INPUT: Provide inhibition value for the following compound: "NS(=O)(=O)c1ccc(N/C=C2\C(=O)Nc3ccc4ncsc4c32)cc1"
OUTPUT: 28

INPUT: Quick one: give measured inhibition for "COc1cccc(-n2ncc3c(N/N=C/c4ccncc4)ncnc32)c1"
OUTPUT: 59.7

INPUT: Given the compound "COc1cc(C=NNc2ncnc3c2cnn3Cc2ccccc2)ccc1O" , write its reported inhibition.
OUTPUT: 13.8

INPUT: Determine from records and report inhibition for "NC(=O)c1sc(-n2cnc3cc(C(F)(F)F)ccc32)cc1OCc1ccccc1Br"
OUTPUT: 2.21

---

# target desc: Dual specificity tyrosine-phosphorylation-regulated kinase 2 (Homo sapiens);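 note: values are mean percent inhibition of DYRK2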
# assay conditions: at 0.1 µM
Catalogue of compounds with associated inhibition
# output: bare number, implied unit %

Field: example entries. Status: answers known.
> print(dat)
                                smiles.code  measured
1  Cc1cc(-c2ccco2)cc(C)c1/C=C/c1cncc(-c2nn[nH]n2)c1      -0.1
2  NS(=O)(=O)c1ccc(N/C=C2\C(=O)Nc3ccc4ncsc4c32)cc1      6.51
3  COc1cc2c(cc1Nc1nc(Nc3ccsc3C(N)=O)c3cc[nH]c3n1)N(C(=O)CN(C)C)CCC2     -0.67
4            Nc1nonc1-c1nc2cnccc2n1C1CCCCC1     -2.75
5  NC(=O)c1sc(-n2cnc3cc(C(F)(F)F)ccc32)cc1OCc1ccccc1Br      1.75
6  NS(=O)(=O)c1ccc(-c2ccc3c(NC(=O)C4CC4)n[nH]c3c2)cc1      1.63

Now look at this entry.
INPUT: Check the records and state inhibition for "CCn1c(-c2nonc2N)nc2c(C#CC(C)(C)O)nc(O[C@@H](CN)c3ccccc3)cc21"
OUTPUT: -1.27

---

# target desc: Tyrosine-protein kinase Lyn (Homo sapiens);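 note: mean inhibition of the LYN B splice variant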
# assay conditions: at 0.1 µM
# Description: GSK_PKIS: LYN B (splice variant) mean inhibition at 0.1 uM [Nanosyn]
measurement label: inhibition (%)
The answer is to be given in %; state only the numeric part.

Please review the entries below; each comes with its answer.
> print(dat)
                                smiles.code  measured
1            Nc1nonc1-c1nc2cnccc2n1C1CCCCC1     -1.46
2  CCn1c(-c2nonc2N)nc2c(C#CC(C)(C)O)nc(O[C@@H](CN)c3ccccc3)cc21      0.81
3  CCn1c(-c2nonc2N)nc2c(C#CCN)ncc(OCCCN)c21      1.28
4  COc1cccc(-n2ncc3c(N/N=C/c4ccncc4)ncnc32)c1      43.2
5  COc1cccc(COc2cc(-n3cnc4ccccc43)sc2C(N)=O)c1     -1.21

INPUT: Give a short answer stating reported inhibition for "NS(=O)(=O)c1ccc(-c2ccc3c(NC(=O)C4CC4)n[nH]c3c2)cc1" .
OUTPUT: 1.42

---

# target desc: Ribosomal protein S6 kinase alpha-6 (Homo sapiens) (UniProt Q9UK32);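 note: reported value is the mean inhibition of RSK4, from the GSK PKIS kinase inhibitor screen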
# Sequence (Q9UK32 whole entry): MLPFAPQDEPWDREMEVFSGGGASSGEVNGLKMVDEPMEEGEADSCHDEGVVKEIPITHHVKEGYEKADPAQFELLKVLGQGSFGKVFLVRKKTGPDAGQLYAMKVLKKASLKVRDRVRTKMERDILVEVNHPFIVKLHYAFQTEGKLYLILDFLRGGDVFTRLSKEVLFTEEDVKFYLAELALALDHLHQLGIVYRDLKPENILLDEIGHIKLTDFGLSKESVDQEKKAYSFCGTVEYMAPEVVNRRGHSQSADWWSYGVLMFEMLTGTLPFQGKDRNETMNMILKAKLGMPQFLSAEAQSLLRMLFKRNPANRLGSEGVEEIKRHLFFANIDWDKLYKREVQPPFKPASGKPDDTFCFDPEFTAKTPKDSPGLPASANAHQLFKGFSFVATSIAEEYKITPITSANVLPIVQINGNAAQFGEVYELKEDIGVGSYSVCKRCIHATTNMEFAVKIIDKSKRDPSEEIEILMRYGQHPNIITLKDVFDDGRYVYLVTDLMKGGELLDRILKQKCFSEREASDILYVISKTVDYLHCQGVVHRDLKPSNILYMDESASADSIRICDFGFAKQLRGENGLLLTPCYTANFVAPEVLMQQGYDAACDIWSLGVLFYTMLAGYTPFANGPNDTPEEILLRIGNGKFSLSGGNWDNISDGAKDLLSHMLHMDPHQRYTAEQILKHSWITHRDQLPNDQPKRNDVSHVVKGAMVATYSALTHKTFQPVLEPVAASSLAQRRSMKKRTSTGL
# assay conditions: at 0.1 µM
measurement label: inhibition

Field: example entries. Status: answers known.
> print(dat)
                                smiles.code                               target.desc  measurement.label  measured
1            Nc1nonc1-c1nc2cnccc2n1C1CCCCC1  Ribosomal protein S6 kinase alpha-6 (Homo sapiens) (UniProt Q9UK32)         inhibition     6.78%
2  COc1cccc(-n2ncc3c(N/N=C/c4ccncc4)ncnc32)c1  Ribosomal protein S6 kinase alpha-6 (Homo sapiens) (UniProt Q9UK32)         inhibition     2.25%
3   COc1cc(C=NNc2ncnc3c2cnn3Cc2ccccc2)ccc1O  Ribosomal protein S6 kinase alpha-6 (Homo sapiens) (UniProt Q9UK32)         inhibition    -1.29%
4  CCn1c(-c2nonc2N)nc2c(C#CC(C)(C)O)ncc(OC[C@@H]3CCCN3)c21  Ribosomal protein S6 kinase alpha-6 (Homo sapiens) (UniProt Q9UK32)         inhibition    -0.15%
5  CCn1c(-c2nonc2N)nc2c(C#CC(C)(C)O)nc(O[C@@H](CN)c3ccccc3)cc21  Ribosomal protein S6 kinase alpha-6 (Homo sapiens) (UniProt Q9UK32)         inhibition     4.01%
6  NS(=O)(=O)c1ccc(N/C=C2\C(=O)Nc3ccc4ncsc4c32)cc1  Ribosomal protein S6 kinase alpha-6 (Homo sapiens) (UniProt Q9UK32)         inhibition     12.6%

INPUT: Please give measured inhibition of the following entry: "CCn1c(-c2nonc2N)nc2c(C#CCN)ncc(OCCCN)c21"
OUTPUT: 1.06%

INPUT: Please give the documented inhibition of "COc1cc2c(cc1Nc1nc(Nc3ccsc3C(N)=O)c3cc[nH]c3n1)N(C(=O)CN(C)C)CCC2"
OUTPUT: 0.38%
